solubility kinetic values, listed per item
TEST CONDITIONS: buffer; pH 7.4; 200.0 µM
Report as a plain number; the unit µg/mL is understood.

Consider the following illustrative entries.
COMPOUND | solubility kinetic [µg/mL]
C=CCN1C(=O)C2(OCCCO2)c2c(C)ccc(C)c21 | 28.2
CCOc1ccc(N2CC(C(=O)N3CCc4ccccc43)CC2=O)cc1 (stereo unspecified) | 4.5
O=C(CCNC(=O)c1ccco1)Nc1nc(-c2ccccc2)cs1 | 8.5

In the following, a different compound is considered.
Query string: Report solubility kinetic for Cc1c(C(=O)NCCSCc2ccccc2)cccc1[N+](=O)[O-] please.
Result string: 46.6

Values from PubChem BioAssay AID1996
